Data provenance is paper PMC5735564.

Biological target: Recombinant human Arg2 (Homo sapiens, UniProt P78540)
Construct: Recombinant human arginase 2 (Arg2) comprising amino acids 23–254 was purchased from US Biological
Sequence (P78540 23-354): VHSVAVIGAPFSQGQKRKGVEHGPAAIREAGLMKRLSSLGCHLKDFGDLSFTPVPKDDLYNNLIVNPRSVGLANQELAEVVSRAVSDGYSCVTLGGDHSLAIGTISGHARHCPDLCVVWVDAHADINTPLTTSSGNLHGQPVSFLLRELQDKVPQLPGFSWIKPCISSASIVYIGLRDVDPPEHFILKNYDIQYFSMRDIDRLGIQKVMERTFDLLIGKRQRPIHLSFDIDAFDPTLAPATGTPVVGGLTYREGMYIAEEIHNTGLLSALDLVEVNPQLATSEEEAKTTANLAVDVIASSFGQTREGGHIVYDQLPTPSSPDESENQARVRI
Assay: Recombinant arginase activity assay (Arg2)
Settings: 20 mM L-arginine; N = 2; mean (±SD)
QUANTITY_NAME: pIC50
Quick note: pIC50 means taking -log10 of the concentration in moles per liter.

The molecule C[C@H](N)C(=O)N1C[C@H](CCCB(O)O)[C@](N)(C(=O)O)C1 , tested on Recombinant human Arg2 (Homo sapiens, UniProt P78540), showed pIC50 of 6.53
